Tested on: HL-60
test-description: Growth inhibition of human HL-60 cells assessed as reduction in cell viability measured after 48 hrs by SRB method
Format: functional
Where a name gives a salt, the structure may show the parent alone.

- compound: "CC(=O)NCCCCCCCCC[C@@H](O)[C@H](C)O"
  target-under-test: "HL-60"
  GI50: "> 30 µM"
- compound: "COc1cccc2c1C(=O)c1c(O)c3c(c(O)c1C2=O)C[C@@](O)(C(=O)CO)C[C@@H]3O[C@H]1C[C@H](N)[C@H](O)[C@H](C)O1 [DOXORUBICIN HYDROCHLORIDE]"
  target-under-test: "HL-60"
  GI50: "0.002 µM"
- compound: "CC(=O)CCCCCCCCCCNC(C)=O"
  target-under-test: "HL-60"
  GI50: "> 30 µM"
- compound: "CC(=O)NCCCCCCCCCC[C@H](O)CO"
  target-under-test: "HL-60"
  GI50: "1.3 µM"
- compound: "CC(=O)NCCCCCCCCC[C@@H](O)CCO"
  target-under-test: "HL-60"
  GI50: "> 30 µM"
- compound: "CC(=O)NCCCCCCCCCC[C@@H](C)O"
  target-under-test: "HL-60"
  GI50: "> 30 µM"
- compound: "CC[C@@H](O)CCCCCCCCCNC(C)=O"
  target-under-test: "HL-60"
  GI50: "> 30 µM"
- compound: "CC(=O)NCCCCCCCCCC(=O)CCO"
  target-under-test: "HL-60"
  GI50: "> 30 µM"
- compound: "CC(=O)CCCCCCCCNC(C)=O"
  target-under-test: "HL-60"
  GI50: "7.9 µM"
- compound: "CCC(=O)CCCCCCCCCNC(C)=O"
  target-under-test: "HL-60"
  GI50: "> 30 µM"
- compound: "CC(=O)NCCCCCCCCC[C@@H](O)[C@@H](C)O"
  target-under-test: "HL-60"
  GI50: "> 30 µM"
- compound: "CC(=O)NCCCCCCCCCO"
  target-under-test: "HL-60"
  GI50: "15 µM"
